test system: PC-3 (prostate cancer); experiment: MTT cell growth inhibition, PC-3 cells, 72 h; assay type: cell-based, human; conditions: Homo sapiens, PC-3, 72 h; read-out: IC90
readout.kind: IC90

Briefly, IC90 measured for Cc1oc2c(c1C)C(=O)C(=O)c1c-2ccc2c(C)cccc12 : 17.5 mg/L

Briefly, IC90 measured for Cc1c(-c2ccc(C(=O)O)cc2)oc2c1C(=O)C(=O)c1c-2ccc2c(C)cccc12 : > 16 mg/L

Briefly, IC90 measured for Cc1c(-c2ccc(OCC(O)CO)cc2)oc2c1C(=O)C(=O)c1c-2ccc2c(C)cccc12 (stereo not shown) : > 16 mg/L

Briefly, IC90 measured for Cc1c(-c2ccccc2Cl)oc2c1C(=O)C(=O)c1c-2ccc2c(C)cccc12 : > 16 mg/L

###

test system: MG63 (osteosarcoma); experiment: MTT cell growth inhibition, MG63 cells, 72 h; assay type: cell-based, human; conditions: Homo sapiens, MG-63, 72 h; read-out: IC50
readout.kind: IC50 (µg/mL)
Give the quantity in µg/mL, number only.

Briefly, IC50 measured for Cc1c(-c2ccc(C(=O)O)cc2)oc2c1C(=O)C(=O)c1c-2ccc2c(C)cccc12 : 1.05

Briefly, IC50 measured for Cc1oc2c(c1C)C(=O)C(=O)c1c-2ccc2c(C)cccc12 : 3.18

Briefly, IC50 measured for Cc1c(-c2ccc(OCC(O)CO)cc2)oc2c1C(=O)C(=O)c1c-2ccc2c(C)cccc12 (stereo not shown) : 1.62

Briefly, IC50 measured for Cc1c(-c2ccccc2Cl)oc2c1C(=O)C(=O)c1c-2ccc2c(C)cccc12 : 10.3

###

Record form. Attribute: IC50. Fill in for each entry.
System: SK-OV-3 (ovarian cancer cell)
Assay: MTT cell growth inhibition, SK-OV-3 cells, 72 h
Format: cell-based, human
Settings: Homo sapiens, SK-OV-3, 72 h; read-out: IC50
Experimental: The standard sample of tanshinone I (TA) and the 2-alkyl- or 2-aromatic-substituted tanshinone I derivatives of the present invention are sufficiently dissolved in dimethylsulfoxide to produce a stock solution of 10 mg/mL, which is refrigerated at 4° C. and stored in dark, and is diluted with a cell culture medium to the desired concentration prior to experimentation. Obtaining 6000 well-growing human solid tumor cells and inoculating them into wells of a 96-well cell culture plate. […]
Give the quantity in µg/mL, number only.

Briefly, IC50 measured for Cc1c(-c2ccc(OCC(O)CO)cc2)oc2c1C(=O)C(=O)c1c-2ccc2c(C)cccc12 (stereo not shown) : 11.7

Briefly, IC50 measured for Cc1c(-c2ccc(C(=O)O)cc2)oc2c1C(=O)C(=O)c1c-2ccc2c(C)cccc12 : 11.1

###

Record form. Attribute: IC90. Fill in for each entry.
tested on: H9 (acute lymphoblastic leukemia, ALL); assay: MTT cell growth inhibition, H9 leukemia cells, 72 h; type: cell-based; conditions: H9, 72 h; read-out: IC90

Briefly, IC90 measured for Cc1c(-c2ccccc2Cl)oc2c1C(=O)C(=O)c1c-2ccc2c(C)cccc12 : > 16 µg/mL

Briefly, IC90 measured for Cc1oc2c(c1C)C(=O)C(=O)c1c-2ccc2c(C)cccc12 : > 16 µg/mL

Briefly, IC90 measured for Cc1c(-c2ccc(C(=O)O)cc2)oc2c1C(=O)C(=O)c1c-2ccc2c(C)cccc12 : 1.98 µg/mL

Briefly, IC90 measured for Cc1c(-c2ccc(OCC(O)CO)cc2)oc2c1C(=O)C(=O)c1c-2ccc2c(C)cccc12 (stereo not shown) : > 16 µg/mL

###

Record form. Attribute: IC90. Fill in for each entry.
System: Hep G2 (human liver cancer cell)
Experiment: MTT cell growth inhibition, Hep G2 cells, 72 h
Format: cell-based
Settings: Homo sapiens, HepG2; Hep G2, 72 h; read-out: IC90
Description: The standard sample of tanshinone I (TA) and the 2-alkyl- or 2-aromatic-substituted tanshinone I derivatives of the present invention are sufficiently dissolved in dimethylsulfoxide to produce a stock solution of 10 mg/mL, which is refrigerated at 4° C. and stored in dark, and is diluted with a cell culture medium to the desired concentration prior to experimentation. Obtaining 6000 well-growing human solid tumor cells and inoculating them into wells of a 96-well cell culture plate. […]

Briefly, IC90 measured for Cc1oc2c(c1C)C(=O)C(=O)c1c-2ccc2c(C)cccc12 : > 16 µg/mL

Briefly, IC90 measured for Cc1c(-c2ccc(C(=O)O)cc2)oc2c1C(=O)C(=O)c1c-2ccc2c(C)cccc12 : > 16 µg/mL

Briefly, IC90 measured for Cc1c(-c2ccc(OCC(O)CO)cc2)oc2c1C(=O)C(=O)c1c-2ccc2c(C)cccc12 (stereo not shown) : 16.3 µg/mL

Briefly, IC90 measured for Cc1c(-c2ccccc2Cl)oc2c1C(=O)C(=O)c1c-2ccc2c(C)cccc12 : > 16 µg/mL

###

Record form. Attribute: IC50. Fill in for each entry.
Tested on: Hela (human cervical cancer cell)
Assay: MTT cell growth inhibition, Hela cells, 72 h
Assay type: cell-based
Settings: Homo sapiens, HeLa, 72 h; read-out: IC50
Protocol: The standard sample of tanshinone I (TA) and the 2-alkyl- or 2-aromatic-substituted tanshinone I derivatives of the present invention are sufficiently dissolved in dimethylsulfoxide to produce a stock solution of 10 mg/mL, which is refrigerated at 4° C. and stored in dark, and is diluted with a cell culture medium to the desired concentration prior to experimentation. Obtaining 6000 well-growing human solid tumor cells and inoculating them into wells of a 96-well cell culture plate. […]
Give the quantity in µg/mL, number only.

Briefly, IC50 measured for Cc1c(-c2ccc(OCC(O)CO)cc2)oc2c1C(=O)C(=O)c1c-2ccc2c(C)cccc12 (stereo not shown) : 1.07

Briefly, IC50 measured for Cc1oc2c(c1C)C(=O)C(=O)c1c-2ccc2c(C)cccc12 : 4

Briefly, IC50 measured for Cc1c(-c2ccc(C(=O)O)cc2)oc2c1C(=O)C(=O)c1c-2ccc2c(C)cccc12 : 0.5

Briefly, IC50 measured for Cc1c(-c2ccccc2Cl)oc2c1C(=O)C(=O)c1c-2ccc2c(C)cccc12 : 5.5

###

System: Hep-2 (laryngeal carcinoma)
Assay: MTT cell growth inhibition, Hep-2 cells, 72 h
Assay type: cell-based, human
Settings: Homo sapiens, HEp-2, 72 h; read-out: IC50
Method: The standard sample of tanshinone I (TA) and the 2-alkyl- or 2-aromatic-substituted tanshinone I derivatives of the present invention are sufficiently dissolved in dimethylsulfoxide to produce a stock solution of 10 mg/mL, which is refrigerated at 4° C. and stored in dark, and is diluted with a cell culture medium to the desired concentration prior to experimentation. Obtaining 6000 well-growing human solid tumor cells and inoculating them into wells of a 96-well cell culture plate. […]
Record form. Attribute: IC50. Fill in for each entry.
Write the quantity with the unit trailing the number.

Briefly, IC50 measured for Cc1c(-c2ccc(OCC(O)CO)cc2)oc2c1C(=O)C(=O)c1c-2ccc2c(C)cccc12 (stereo not shown) [BS-TA-301] : 5.27 µg/mL

Briefly, IC50 measured for Cc1c(-c2ccccc2Cl)oc2c1C(=O)C(=O)c1c-2ccc2c(C)cccc12 [BS-TA-04] : 11.6 µg/mL

Briefly, IC50 measured for Cc1c(-c2ccc(C(=O)O)cc2)oc2c1C(=O)C(=O)c1c-2ccc2c(C)cccc12 [BS-TA-302] : 8 µg/mL

Briefly, IC50 measured for Cc1oc2c(c1C)C(=O)C(=O)c1c-2ccc2c(C)cccc12 [BS-TA-03] : 9.17 µg/mL

###

System: Hep G2 (human liver cancer cell)
Assay: MTT cell growth inhibition, Hep G2 cells, 72 h
Format: cell-based
Conditions: Homo sapiens, HepG2; Hep G2, 72 h; read-out: IC50
Description: The standard sample of tanshinone I (TA) and the 2-alkyl- or 2-aromatic-substituted tanshinone I derivatives of the present invention are sufficiently dissolved in dimethylsulfoxide to produce a stock solution of 10 mg/mL, which is refrigerated at 4° C. and stored in dark, and is diluted with a cell culture medium to the desired concentration prior to experimentation. Obtaining 6000 well-growing human solid tumor cells and inoculating them into wells of a 96-well cell culture plate. […]
Record form. Attribute: IC50. Fill in for each entry.
Give the quantity in mg/L, number only.

Bench note, Hep G2 (human liver cancer cell): Cc1c(-c2ccc(OCC(O)CO)cc2)oc2c1C(=O)C(=O)c1c-2ccc2c(C)cccc12 (stereo not shown) , IC50 reads 2.09

Bench note, Hep G2 (human liver cancer cell): Cc1c(-c2ccccc2Cl)oc2c1C(=O)C(=O)c1c-2ccc2c(C)cccc12 , IC50 reads 14.5

Bench note, Hep G2 (human liver cancer cell): Cc1c(-c2ccc(C(=O)O)cc2)oc2c1C(=O)C(=O)c1c-2ccc2c(C)cccc12 , IC50 reads 1.94

Bench note, Hep G2 (human liver cancer cell): Cc1oc2c(c1C)C(=O)C(=O)c1c-2ccc2c(C)cccc12 , IC50 reads 5.48

Values were extracted from patent US9771343B2.
